- Procedure text: yeast display, Sf9 membrane polyspecificity reagent, FACS + sequencing; frameworks hold sequencing errors
Measured attribute: polyreactivity (PSR sort gate)

QVQLVESGGGLVQAGGSLRLSCAASGSTFGTYAMGWYRQAPGKERELVAAITSGGSTDYADSVKGRFTISRDNAKNTVYLQMNSLKPEDTAVYYCNATWELLSYYYLFWGYDYWGQGTQVTVSS : low polyreactivity
QVQLVESGAGLVQAGGSLRLRCAASGSIFPGSALGWYRQARGKERELVAAITFGGAITYYADSVKGRFTISRDNAKNTVYLLMNSLKPEDSAVYYCAAKSPRILLDYWGQGTQVTVSS : low polyreactivity

----------
- Procedure text: yeast display, Sf9 membrane polyspecificity reagent, FACS + sequencing; frameworks hold sequencing errors
Measured attribute: polyreactivity (PSR sort gate)

QVQLVESGGGLVQAGGSLRLSCAASGSTFGAYVMGWYRQAPGTERELVAVISSGGSTKYADSVKGRFTISRDNAKNTVYLQMNSLKPEDTAVYYCSARRASRHRYYPFDYWGQGTQVTVSS : high polyreactivity
QVQLEESGGGLVQAGGSLRLSCAASGSIFKRKAMGWSRQAPGKERELVASISSGGSTHYADSVKGRFTISRDNAKNTVYLQMNSLKREDTAVYYCAATSIRWSVGSFRRDYWGQGTQVTVSS : low polyreactivity
QVQLVESGGGLVQAGGSLRLSCAASGSTIYPNAMGWYRQAPGKERELVAVISSGGSTYYADSVKGRFTISRDNAKNTVYLLMNSLKPVDTAVYYCAADRGTVSYLYSPRAVDYWGQGTQVTVSS : low polyreactivity
QVQLVESGGGLVQAGGSLRLSYAASGFTFTGYALGWYRQAPGKARELVAAISQSGGSTYADSVKGRFTISRDNAKNTVYLQMNSLKPEDTAVYYCAAVWFLLTEYDYWGQGTQVTVSS : low polyreactivity

polyreactivity (PSR sort gate) for QVQLGESGGGLVQAGGSLRLSCAASGSIFNYYTMGWYRQAPGKERELVAAISSSGGSTYYADSVKGRFTISRDNAKNTVYLQMNSRKPEDTAVYYCAALGRYFTSAGGYWGQGTQVTVSS ?
high polyreactivity

----------
- Procedure text: yeast display, Sf9 membrane polyspecificity reagent, FACS + sequencing; frameworks hold sequencing errors
Measured attribute: polyreactivity (PSR sort gate)

Worked examples follow.
QVQLVESGGGLVQAGGRLRLSCAASGFTFYYNDMGWYRQAPGKERELVAAITWSGGSTYYADSVKGRFTISRDNAKNTVYLQMNSLKPEDTAVYYCNARYWVHGYRYYYWGQGTQVTVSS : high polyreactivity
QVQLVESGGGLVQAGGSLRLSCAASGFIFTRYAMGWYRQAPGKERELVAAISWIGTSTYYADSVKGRFTISRDNAKNTVYLQMNSLKPEDTAVYYCNALRYSTGRPGFYLGYDYWGQGTQVTVSS : high polyreactivity
QVQLVESGGGLVQAGGSLRLSCAASGRIFPSYAMGWYRQAPGKERELVAAISSSGGRTYYADSVKGRFTISRDNAKNTVYLQMNSLKPEDTAVYYCAARWVQYGVRYDYWGQGTQVTVSS : high polyreactivity
QVLLVESGGGLVQAGGSLRLSCAASGRTLRGYAMGWYRQAPGKERELVAAITWSGGSTYYADSVKGRFTISRDHAKNTVYLQMNSLKPEDTAVYYCNARSYPDLYDYWGQGTQVTVSS : low polyreactivity
QVQLVESGGGLVQAGGSLRLSCAASGITFSVYAMGWYRQAPGKERELVAAISGSGGSTYYADSVKGRFTISRDNAKNTVYLQMNSLKPEDTAVYYCAARLAQKYSPTRYNYWGQGTQVTVSS : high polyreactivity
QVQLVESGGGLVQAGGSLRLSCAASGRIFRYYTMGWYRQAPGKERELVAAIRLAGSTTYYADSVKGRFTISRDNAKNTVYLQMNSLNPEDSAVYSCTTRYPVPSGYDYWGHGTQVTVSS : high polyreactivity
QVQLVESGGGLVQAGGSLRLSCAASGFTFTLYAMGWYRQAPGKERELVAAISWNGSTYYADSVKGRFTISRDNAKNTVYLQMNSLKPEDTAVYYCNADVWISYNNAYVTLDYWGQGTQVTVSS : high polyreactivity
QVQLVESGGGLVQAGGSLRLSCAASGSTFWPNAMGWYRQAPGKERELVAAITGGGGTNYADSVKGRFTISRDNAKNTVYLQMNSLKPEDTAVYYCAAKKVNSRSHVKYYYWGQGTQVTVSS : high polyreactivity

polyreactivity (PSR sort gate) for QVQLVESGGGLVQAGGSLRLSCAASGNTFVSNAMGWYRQAPGKERELVAAIDSGGSTNYADSVKGRFTISRDNAKNTVYLQMNRLKPEDTAVYYCNRTSVYYYYWGQGTQVTVSS ?
low polyreactivity

Try this sequence too: QVQLVESGGGLVQAGGSLRLSCAASGSTFRYNAMGWYRQAPGKERELVAAINRGGGTDYADSVKGRFTISRDNAKNTVYLQMNSLKPEDTAVYYCNATTGYGGYNYWGQGTQVTVSS
low polyreactivity

Try this sequence too: QVQLVESGGGLVQAGGSLRLSCAASGITFVRYAMGWYRQAPGKERELVAVISRGGITNYADSVKGRFTISRDNAKNTVYLQMNSMKPEDTAVYYCAVRGRSYVRTYDYWGQGTQVTVSS
high polyreactivity

----------
- Procedure text: yeast display, Sf9 membrane polyspecificity reagent, FACS + sequencing; frameworks hold sequencing errors
Measured attribute: polyreactivity (PSR sort gate)

Worked examples follow.
QVQLQESGGRLVQAGGSLRLSCAPSGDILEADDMGWYRQAPGKERELVASITDGGSTNCADSMKGRSTICRDNAKITVYLQMNSLKPEDTAVYYCAADAWDLYSDGQEYNYWGQGTQVTVSS : high polyreactivity
QVQIVESGGGLVQAGGSLRLSCAASGSTFQYYAMGWYRQAPGKERELVAGITWRDGNTYYADSVKGRFTISRDNAKNSVYLQMNSLKPEDTAVYYCAARRYFVIYFPYDYWGQGTQVTVSS : low polyreactivity
QVQLVESGGGLVQAGGSLRLSCAASGSTFWVYAMGWYRQAPGKERELVATISRGGSTNYADSVKGRFTISRDNAKNTVYLQMNSLKPEDTAVYYCAAPRFYGYGYEYCGQGTQVTVSS : low polyreactivity
QVQLVESGGGLVQAGGSLRLSCAASGSIFVKNVMGWYRQAPGKERELVAAITRGGRTYYADSVKGRFTISRDNAKNTVYLQMNSLKPEDTAVYYCNAYRLSYTYGYWGQGTQVTVSS : high polyreactivity

polyreactivity (PSR sort gate) for QVQLVESGGGLVQAGGSLRLSCAASGYIFFGNAMGWYRQAPGKERDLVAAIRWRGTSTYYADSVKGRFTISRDNAKNTVTFLMNSLKPEDSAVYYCAADVVRSNFYGTFLYDYEYWGKGTQVTVSS ?
low polyreactivity

----------
- Procedure text: yeast display, Sf9 membrane polyspecificity reagent, FACS + sequencing; frameworks hold sequencing errors
Measured attribute: polyreactivity (PSR sort gate)

Worked examples follow.
QVQLVESGGGLVQAGGSLRLSCAASGRIQYNAMGWYSQAPGKEREFGAAISWSGGTTYYADSVKGRFTISRDTAKNTVYLQMNSLKPEDTAVYYCATPYTHWGQGTQVTVSS : high polyreactivity
QVQLVESVGVLDQAGGSLRLSCAASGFTFVRYAMGWYRQAPGKERELVAAISGSGGRTYYADSVKGRFTISRDTAKNTVYLQLNSLKPEDTAVYYCAAVYLVTRGARYEYWGQGTQVTVSS : high polyreactivity
QVQLVESGGGLVQAGGSLRLSCAASGSTFYVYAMGWYRQAPGKEREFVAAISFSSGSTYYADSVKGRFTISRDYAKNTVYLQMNSLKPEDTAVYYCAARYRYPRSIGYGYGGAFDYWGQGTQVTVSS : high polyreactivity
QVQLVESGGGLVQAGGSLRLSCAASGGIFGVYAMVWYRQAPGKERELVAAISQSDTSTYYADSVKGRFTISRDNAKNTVYLQMNSLKPEDTAVYYCADEYYLDYYTWFDYWGQGTQVTVSS : high polyreactivity

polyreactivity (PSR sort gate) for QVQLVESGGGKVQAGGSLRLSCAASGFILSRNAMGWYRQAPGKERELVAAISRSGTRTYYADSVKGRFTISRDNEQNTVYLQMNSLKPEDTAVYYCARVSKRTWTGYYYWGQGTQVTVSS ?
high polyreactivity

Try this sequence too: QVQLVESGGGLVQAGGSLRLSCAASGSTFASNAMGWYRQAPGKERELVAAISRSGGTTYYADSVKGRFTISRDNAKNTVYLQMNSLKPEDTAVYYCAVYGYRFYKAVKYYYWGQGTQVTVSS
high polyreactivity

Try this sequence too: QVQLVESGGGLVQAGGSLRLSCAASGRTFQYNAMGWYRQAPGKERELVAAISSSGGSTYYADSVKGRFTISRDNAKNTVYLQMNSLKPEDTAVYYCNAYSQSWNFYGDGDYWGQGTQVTVSS
low polyreactivity

Try this sequence too: QVQLVESGGGLVQAGGSLRLSCAASGITFRYYTMGWYRQAPGKERELVAAISSSGGSTYYADSVKGRFTISRDNAKNTVYLQMNSLKPEDTAVYYCAAESKYATSSPRRDYWGQGTQVTVSS
high polyreactivity

Try this sequence too: QVQLVESGGGLVQAGGSLRLSCAASGSTIYYYAMGWYRQAPGKERELVASISDDGSTNYADSVKGRFTISRDNAKNTVYLQMNSLKPEDTAVYYCAAVWWHQFGSAWYQMGYWGQGTQVTVSS
low polyreactivity

Try this sequence too: QVHLVDSGGGLVQAGGSLRLSCAASGRTFGRNAMGWYRQAPGKERELVAAISLRGGRTYYADSVKGRFTISRDNAKNTVYLQMNSLKPEDTAVYYCAAYGYRDYYFWGQGTQVTVSS
high polyreactivity

Try this sequence too: QVQLVESGGGLVQAGGSLRLSCAASGFTFQYYAMGWYRQAPGKERELVAAISWSGDSTYYADSVKGRITISRENAKNSVYLQMNSLKPEDTAVYYCAVYYTRGYDYWGQGTQVTVSS
high polyreactivity

Try this sequence too: QVQLVESGGGLVQAGGSLRLSCAASGFIFITVNAMGWYRQAPGKEREFVAAITRSGTGTYYADSVKGRFTISRDNAKNTVYLQMNSLKPEDTAVYYCAAEWSEESDYWGQGTQVTVSS
low polyreactivity

Try this sequence too: QVQLVESGGGLVQAGGSLRLSCAASGRIFTKYAMGWYRQAPGKERELVATISKRSGSTYYADSVKGRFTISRDNAKNTVYLQMNSLKPEDTAVYYCARTVGYRTLLESDSWGQGTQVTVSS
high polyreactivity

Try this sequence too: QVQLVESGGGLVQAGGSLRLSCASSGSTFAPNAMGWYSQAPGKEREFVAAITYRGSSTYYADSVKGRFTISRDNAKNTVYLQMNSLKPEDTAVYYCAADYVEYKVRSYDYWGQGTQVTVSS
low polyreactivity
